# METHOD DESCRIPTION: Toxicity liver stage against HepG2, at 10uM
# Assay type: cell-based
# Design: test concentration 10 uM, cell line HepG2-A16-CD81EGFP
# SETUP CONDITIONS: human, HepG2-A16-CD81EGFP cells; read-out: INHIBITION
PROPERTY MEASURED: cytotoxicity at 10 µM (%)
Express it in %; write the number only.

// worked examples, cytotoxicity at 10 µM included
{"columns": ["COMPOUND", "cytotoxicity at 10 µM (%)"],
 "data": [
  ["CNC(=O)N1CC[C@H]2N(C)CC[C@@]2(C(=O)Nc2ccccc2)CC1", -17.2],
  ["CCN(CC)C(=O)[C@@H]1C[C@@H](N)CN1c1nc(N(C)C)nc(C)c1C", -24.4],
  ["C[C@@H]1CN(C(=O)NC2CC2)C[C@]12CCN(c1ccsc1)C2=O", 0.77],
  ["c1ccc(-c2nnn3c2COC(CNCC2CC2)C3)cc1 (centres undefined)", -77.8],
  ["Cn1cc(C2COC3(CCN(C(=O)c4ccc(F)cc4)CC3)C2)cn1 (centres undefined)", 8.31],
  ["Cc1cnn(CCCNC(=O)CCC2CCCCN2C)c1 (centres undefined)", -7.32]
]}

Q: Give the measured cytotoxicity at 10 µM for COC[C@]1(O)CCN(C2CCN(c3ccc(OC)cc3)CC2)CC1(C)C
Result: -3.17

Q: Give the measured cytotoxicity at 10 µM for O=C1NC2(CCc3ccccc31)CCN(C(=O)c1ccncc1)C2 (centres undefined)
Result: 0.84

Q: Give the measured cytotoxicity at 10 µM for Cc1ccc(OCCn2cnc3oc(C)c(C(=O)O)c3c2=O)cc1
Result: -8.17

Q: Give the measured cytotoxicity at 10 µM for Cc1cccc(NC(=O)CCC(=O)NCC(=O)c2ccccc2F)c1
Result: -6.56

Q: Give the measured cytotoxicity at 10 µM for CCOc1cc(C(=O)n2cccn2)cc(OCC)c1OCC
Result: 2.83

====

# METHOD DESCRIPTION: Toxicity liver stage against HepG2, at 10uM
# Type: cell-based
# Set-up: test concentration 10 uM, cell line HepG2-A16-CD81EGFP
# SETUP CONDITIONS: human, HepG2-A16-CD81EGFP cells; read-out: INHIBITION
Rule for this label: t means cytotoxicity at 10 µM is less than -70%; f means cytotoxicity at 10 µM is at least -70%.

{"columns": ["STRUCTURE NOTATION", "LABEL VALUE"],
 "data": [
  ["Cc1cc(C)cc(NC(=O)N(CCC#N)CCCN(C)C)c1", "f"]
]}

Q: Just wondering, is cytotoxicity at 10 µM of N#Cc1cccnc1OC1CCN(C(=O)NCc2ccccc2)CC1 below -70%?
Result: f

Q: Just wondering, is cytotoxicity at 10 µM of COCC(=O)N1CCC2(CC1)COCCN2Cc1ccc(F)cc1 below -70%?
Result: t

Q: Just wondering, is cytotoxicity at 10 µM of O=C(Cc1ccco1)N1C[C@@H]2COC[C@]2(COCC2CCOCC2)C1 below -70%?
Result: t

Q: Just wondering, is cytotoxicity at 10 µM of CCn1c(CC2CCN(C(=O)c3cc(C(C)C)n[nH]3)CC2)n[nH]c1=O below -70%?
Result: f

Q: Just wondering, is cytotoxicity at 10 µM of O=C1Nc2ccccc2C12CCN(c1nccs1)CC2 below -70%?
Result: f

====

# METHOD DESCRIPTION: Toxicity liver stage against HepG2, at 10uM
# Assay type: cell-based
# Parameters: test concentration 10 uM, cell line HepG2-A16-CD81EGFP
# SETUP CONDITIONS: human, HepG2-A16-CD81EGFP cells; read-out: INHIBITION
# Lookup of reported cytotoxicity at 10 µM keyed by entry
Express it in %; write the number only.

Q: Give the measured cytotoxicity at 10 µM for COc1cccc(C2(NC(=O)CCNC(C)=O)CC2)c1
Result: 1.6

Q: Give the measured cytotoxicity at 10 µM for CC(C(=O)NCCc1ccc2c(c1)OCCO2)n1cncn1 (centres undefined)
Result: 6.89

Q: Give the measured cytotoxicity at 10 µM for Cc1cc(C)n(CC2CCCN2C(=O)Cc2cn3ccsc3n2)n1 (centres undefined)
Result: -12.5

Q: Give the measured cytotoxicity at 10 µM for CC(C)C(=O)N1CCC(C)(c2cc(O)[nH]n2)CC1
Result: -14.5

====

# Lookup of reported cytotoxicity at 10 µM keyed by entry
# METHOD DESCRIPTION: Toxicity liver stage against HepG2, at 10uM
# Type: cell-based
# Parameters: test concentration 10 uM, cell line HepG2-A16-CD81EGFP
# SETUP CONDITIONS: human, HepG2-A16-CD81EGFP cells; read-out: INHIBITION
Express it in %; write the number only.

{"columns": ["COMPOUND", "cytotoxicity at 10 µM, %"],
 "data": [
  ["O=C(O)c1cc(NS(=O)(=O)c2ccccc2F)ccc1N1CCSCC1", -5.27]
]}

Q: Give the measured cytotoxicity at 10 µM for NC(=O)NCC(=O)N1C[C@@H]2CC[C@H]1CN(Cc1ccccc1)C2
Result: -13.4

Q: Give the measured cytotoxicity at 10 µM for C[C@@H]1CN(Cc2cc(C3CCCCC3)no2)CC[C@@]1(O)C1CC1
Result: 0.957

====

# METHOD DESCRIPTION: Toxicity liver stage against HepG2, at 10uM
# Format: cell-based
# Set-up: test concentration 10 uM, cell line HepG2-A16-CD81EGFP
# SETUP CONDITIONS: human, HepG2-A16-CD81EGFP cells; read-out: INHIBITION
PROPERTY MEASURED: cytotoxicity at 10 µM (%)
Express it in %; write the number only.

// worked examples, cytotoxicity at 10 µM included
{"columns": ["MOLECULE", "VAL"],
 "data": [
  ["Cc1oncc1C(=O)N1CCC2(CCN(Cc3ccccn3)C2=O)C1 (centres undefined)", -11.4],
  ["CC(C)c1ccc(OCCC(=O)N(C)C)cc1", 3.81],
  ["COc1ccc(C(=O)N2CCC(Oc3ccccc3)(C(=O)O)CC2)o1", 11.6],
  ["O=C(NCC(F)(F)F)C1=NOC2(CCCNC2)C1 (centres undefined)", 2.16],
  ["COCCN1CCC(CNC(=O)c2cc(C)cc(C)c2)C1 (centres undefined)", -7.32]
]}

Q: Give the measured cytotoxicity at 10 µM for CC(NC(=O)NCCC(=O)OC(C)(C)C)c1nncn1C (centres undefined)
Result: 2.49

Q: Give the measured cytotoxicity at 10 µM for Cc1cc(CN2CCC3(CC2)COC(COCC2CC2)C3)no1 (centres undefined)
Result: -107

Q: Give the measured cytotoxicity at 10 µM for CN1CCN(C[C@@H]2OC[C@H]3CN(Cc4ccsc4)CC[C@H]32)CC1
Result: -11

Q: Give the measured cytotoxicity at 10 µM for Fc1cnc(N2C[C@H]3CCC[C@@]3(COc3ccccn3)C2)nc1
Result: 15.6

Q: Give the measured cytotoxicity at 10 µM for CCOCc1nc(CSc2ccncc2)n(C)n1
Result: 2.87

Q: Give the measured cytotoxicity at 10 µM for Cn1c(-c2ccccc2Cl)nc2cc(C(=O)NCC3(C)COC3)cnc21
Result: 1.59

Q: Give the measured cytotoxicity at 10 µM for O=C(C1CCSCC1)N1CC[C@H]2OCC[C@@]2(COCC2CC2)C1
Result: -1.16

Q: Give the measured cytotoxicity at 10 µM for Cc1noc(-c2cnc(NC(C)C)nc2-c2ccco2)c1C
Result: -0.275

Q: Give the measured cytotoxicity at 10 µM for Cc1noc(C)c1CCC(=O)NCC1(O)CCCN(c2ccccn2)C1 (centres undefined)
Result: -3.95

Q: Give the measured cytotoxicity at 10 µM for O=C(c1cn[nH]c1)N1CCC2(CCCN(Cc3ccc(F)c(F)c3)C2)C1 (centres undefined)
Result: 6.07

Q: Give the measured cytotoxicity at 10 µM for CS(=O)(=O)N1CCOCC2(CCN(Cc3ccoc3)CC2)C1
Result: 2.64

Q: Give the measured cytotoxicity at 10 µM for O=S(=O)(c1ccccc1)N1CCCC1c1cc[nH]n1 (centres undefined)
Result: -6.58

Q: Give the measured cytotoxicity at 10 µM for NCC1[C@H]2CN(Cc3ccccc3)C[C@@H]12 (some centres undefined)
Result: 4.78

Q: Give the measured cytotoxicity at 10 µM for CCOc1ncccc1CNC(=O)N1CCCC1c1ccncc1 (centres undefined)
Result: 21.2

Q: Give the measured cytotoxicity at 10 µM for Cc1nc(CNCc2c(C)nn(C)c2N2CCOCC2)cs1
Result: -7.44

Q: Give the measured cytotoxicity at 10 µM for CCN1CC2(CC1=O)CN(C(=O)COC)CCN(S(C)(=O)=O)C2 (centres undefined)
Result: 0.165

Q: Give the measured cytotoxicity at 10 µM for CCC(C)N(Cc1ccncc1)Cc1cccc(Cn2cccn2)c1 (centres undefined)
Result: -45.1

Q: Give the measured cytotoxicity at 10 µM for Cc1cnn(CCNCC(O)c2ccc(S(C)(=O)=O)cc2)c1 (centres undefined)
Result: 1.1

Q: Give the measured cytotoxicity at 10 µM for Cc1cc(C)cc(NS(=O)(=O)c2cc3c(c(C(=O)O)c2)OCCO3)c1
Result: 0.289
